System: NCI-H460 lung
Test Summary: NCI-60 one-dose screen, 48 h (100 = growth as untreated, 0 = no growth, -100 = all killed)
Protocol Conditions: 10 µM unless noted
Compounds without any hit were thinned out: in the full panel of roughly 83,000, 20% have a hit.
Property Label: growth (%)
Quick note: give the figure in %, leave out the unit.

# Smiles, growth [%]
measured = [
    ("O=C(Nc1ccc(N=Nc2ccccc2)cc1)c1cccc2ccccc12", 61.1),
    ("O=S1(=O)OC(c2ccc(O)c(Cl)c2)(c2ccc(O)c(Cl)c2)c2ccccc21", 101),
    ("O=c1[nH]c([C@@H]2CCCN2)nc2c1oc1ccc(Cl)cc12", 34.4),
]

Next compound, please.
For the compound `O=C(CNc1nc2ccccc2s1)Nc1ccc(-c2nc3ccccc3s2)cc1` , what growth is on record?
99.8
